- System: HOP-62
- Test Name: relative viability (nuclei count vs DMSO), 5 days (fraction); higher = more cells survive
- Condition Set: first compound 158.11 µM
I'd be grateful if you could share measured relative viability for these entries.
One number for each entry.

Please review the following examples before continuing.
[[record]]
compound = "O=C(O)CCCCC(CCSCc1ccccc1)SCc1ccccc1 (centres undefined) [CPI-613] + COc1cccc2cc(-c3nc([C@H]4CC[C@H](C(=O)O)CC4)n4ncnc(N)c34)[nH]c12 [OSI-027] (partner 0.5 µM)"
recorded_value = 0.477

[[record]]
compound = "O=C(O)CCCCC(CCSCc1ccccc1)SCc1ccccc1 (centres undefined) [CPI-613] + NC(=O)Nc1cc(-c2cccc(F)c2)sc1C(=O)N[C@H]1CCCNC1 [AZD7762] (partner 0.2 µM)"
recorded_value = 0.235

[[record]]
compound = "O=C(O)CCCCC(CCSCc1ccccc1)SCc1ccccc1 (centres undefined) [CPI-613] + O=C(c1cc(Cc2n[nH]c(=O)c3ccccc23)ccc1F)N1CCN(C(=O)C2CC2)CC1 [Olaparib] (partner 8 µM)"
recorded_value = 0.459


In the following, a different compound is considered.
Reported relative viability for HOP-62, given O=C(O)CCCCC(CCSCc1ccccc1)SCc1ccccc1 (centres undefined) [CPI-613] + CS(=O)(=O)CCNCc1ccc(-c2ccc3ncnc(Nc4ccc(OCc5cccc(F)c5)c(Cl)c4)c3c2)o1 [Lapatinib] (partner 2 µM) ?
0.804
